Data provenance is paper PMC10174317.

tested.on: T1, FGFR1 (Homo sapiens, UniProt P11362)
T1 chain: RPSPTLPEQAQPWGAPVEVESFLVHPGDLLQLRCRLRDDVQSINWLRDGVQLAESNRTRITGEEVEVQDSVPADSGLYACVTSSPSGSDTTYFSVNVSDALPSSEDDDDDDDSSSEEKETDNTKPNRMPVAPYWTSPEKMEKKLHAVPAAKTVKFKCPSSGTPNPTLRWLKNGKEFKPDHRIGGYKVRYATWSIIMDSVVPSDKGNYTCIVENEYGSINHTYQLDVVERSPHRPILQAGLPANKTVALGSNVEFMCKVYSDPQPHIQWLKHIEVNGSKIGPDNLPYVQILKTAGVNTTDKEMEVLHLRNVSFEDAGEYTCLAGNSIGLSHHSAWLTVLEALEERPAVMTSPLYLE
test.method.notes: saturation binding assay on RT-112 cells (radioligand)
Primed or numbered codes have the meaning given here. Where no end group is shown, it is not given here. The star is where a group is joined. NOTA = O=C(O)CN1CCN(CC(=O)O)CCN(CC(=O)*)CC1; PEG2′ = not defined here
property.name: pKd
The scale used: pKd is minus the common logarithm of the concentration in molar units.

What does the data say about its pKd? Entry: {NOTA-PEG2′}-KAEWKSLGEEAWHSK (also: Al18F complexed by NOTA) [[18F]F-FGFR1 peptide (NOTA-PEG2-KAEWKSLGEEAWHSK)]
6.72
